Just for reference, patent US20260055079A1 is where these values come from.

Reported values of GI50 for individual entries
tested on: NCI-H1373 (human lung adenocarcinoma) cells; experiment: Cell proliferation assay (CellTiter-Glo), NCI-H1373; format: cell-based; settings: Homo sapiens, NCI-H1373, 144 h; 6 days, CellTiter-Glo; read-out: NCI-H1373 GI50

Consider the worked cases shown below.
stdin: GI50 of CC(F)(F)c1ccc2c(=O)[nH]nc(Cc3ccc(F)c(C(=O)N4CCN(c5ccc(C#N)cn5)CC4)c3)c2c1 on NCI-H1373 (human lung adenocarcinoma) cells?
stdout: 0.1 to 1 µM

stdin: Test system NCI-H1373 (human lung adenocarcinoma) cells; read-out GI50; what value for CC#Cc1ccc2c(=O)[nH]nc(Cc3ccc(F)c(C(=O)N4CCN(c5ccc(C#N)cn5)CC4)c3)c2c1 ?
stdout: < 0.1 µM

stdin: GI50 of COc1cc2c(Cc3ccc(F)c(C(=O)N4CCN(c5ccc(C#N)cn5)CC4)c3)n[nH]c(=O)c2cn1 on NCI-H1373 (human lung adenocarcinoma) cells?
stdout: 1 to 5 µM

stdin: Given the entry N#Cc1ccc(N2CCN(C(=O)c3cc(Oc4n[nH]c(=O)c5ccccc45)ccc3F)CC2)nc1 , what GI50 was observed with NCI-H1373 (human lung adenocarcinoma) cells?
stdout: 1 to 5 µM

stdin: What value of GI50 on NCI-H1373 (human lung adenocarcinoma) cells does C#CC(C)Oc1ccc2c(=O)[nH]nc(Cc3ccc(F)c(C(=O)N4CCN(c5ccc(C#N)cn5)CC4)c3)c2c1 (stereo not shown) have?
stdout: < 0.1 µM

New cases:
stdin: Give recorded GI50 with NCI-H1373 (human lung adenocarcinoma) cells for the following compound: CC#Cc1ccc2c(=O)[nH]nc(Cc3ccc(F)c(C(=O)N4CCC(F)(c5ccc(C#N)cn5)CC4)c3)c2c1
stdout: 1 to 5 µM

###

Here the recorded GI50 is given for each entry.
system: HARA (human lung squamous cell carcinoma) cells; experiment: Cell proliferation assay (CellTiter-Glo), HARA; format: cell-based; conditions: Homo sapiens, 144 h; 6 days, CellTiter-Glo; read-out: HARA GI50

Record excerpt, results attached:
stdin: Request the reported GI50 associated with COc1ccc2c(=O)[nH]nc(Cc3cccc(C(=O)N4CCN(c5ccc(C#N)cn5)CC4)c3)c2c1 [Example 4]
stdout: 1 to 5 µM

stdin: Recorded GI50 of Cc1cc(C#N)cnc1N1CCN(C(=O)c2cc(Cc3n[nH]c(=O)c4ccc(OC5CCC5)cc34)ccc2F)CC1 [Example 138] , please.
stdout: 1 to 5 µM

stdin: May I ask what GI50 has been recorded for N#Cc1cnc(N2CCN(C(=O)c3cc(Cc4n[nH]c(=O)c5ccc(OC6CCC6)cc45)ccc3F)CC2)cc1C(F)(F)F [Example 132] ?
stdout: 1 to 5 µM

stdin: Can you look up the measured GI50 of O=C(c1cc(Cc2n[nH]c(=O)c3ccc(OC4CCC4)cc23)ccc1F)N1CCCN(C(=O)C2CC2)CC1 [Example 101] for me?
stdout: > 5 µM

***
stdin: Which GI50 is listed for O=C(c1cc(Cc2n[nH]c(=O)c3ccc(OC4CCC4)cc23)ccc1F)N1CCN(c2cc(C(F)(F)F)ccn2)CC1 [Example 156] ?
stdout: 1 to 5 µM

###

biological target: His-GST-PARP7 (Homo sapiens (Human), UniProt Q7Z3E1); test: PARP7 biochemical assay; details: read-out: PARP7 IC50
Sequence (Q7Z3E1 whole entry): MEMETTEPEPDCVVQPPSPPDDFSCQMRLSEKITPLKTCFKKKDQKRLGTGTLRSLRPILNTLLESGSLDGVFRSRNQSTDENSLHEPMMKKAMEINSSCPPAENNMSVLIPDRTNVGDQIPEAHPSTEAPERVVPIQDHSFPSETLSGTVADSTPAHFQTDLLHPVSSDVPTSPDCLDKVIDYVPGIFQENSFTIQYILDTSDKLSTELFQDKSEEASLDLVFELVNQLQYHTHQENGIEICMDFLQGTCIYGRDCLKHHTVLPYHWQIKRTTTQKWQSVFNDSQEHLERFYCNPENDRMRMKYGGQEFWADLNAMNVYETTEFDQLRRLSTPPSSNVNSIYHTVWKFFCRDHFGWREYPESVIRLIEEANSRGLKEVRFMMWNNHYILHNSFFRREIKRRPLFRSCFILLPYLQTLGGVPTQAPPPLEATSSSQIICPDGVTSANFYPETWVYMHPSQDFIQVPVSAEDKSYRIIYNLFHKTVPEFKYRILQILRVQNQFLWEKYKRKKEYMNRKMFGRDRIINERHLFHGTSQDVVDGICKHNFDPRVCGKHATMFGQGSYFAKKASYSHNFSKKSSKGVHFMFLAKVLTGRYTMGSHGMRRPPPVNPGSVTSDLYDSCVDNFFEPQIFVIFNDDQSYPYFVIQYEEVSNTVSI
pIC50: −log10 of the molar value.
pIC50 listing for selected compounds.

Please review the following examples before continuing.
stdin: Short answer please: pIC50, His-GST-PARP7 (Homo sapiens (Human), UniProt Q7Z3E1), entry N#Cc1ccc(N2CCN(C(=O)c3cc(Cc4n[nH]c(=O)c5ccc(N6CC7(C6)CC(F)(F)C7)cc45)ccc3F)CC2)nc1
stdout: 7.00 to 7.30

stdin: State its pIC50 on His-GST-PARP7 (Homo sapiens (Human), UniProt Q7Z3E1): O=C(c1cc(Cc2n[nH]c(=O)c3ccc(OC4CCC4)cc23)ccc1F)N1CCN(c2ccc(O)cn2)CC1
stdout: > 7.30

stdin: Item: N#Cc1ccnc(N2CCN(C(=O)c3cc(Cc4n[nH]c(=O)c5ccc(OC6CCC6)cc45)cc4c3OCC4)CC2)c1 Test system: His-GST-PARP7 (Homo sapiens (Human), UniProt Q7Z3E1) Read-out: pIC50 Value: ?
stdout: 7.00 to 7.30

Others:
stdin: What reported pIC50 corresponds to O=C(c1cc(Cc2n[nH]c(=O)c3ccc(OC4CCC4)cc23)ccc1F)N1CCN(C(=O)C2CC2)CC(F)(F)C1 on His-GST-PARP7 (Homo sapiens (Human), UniProt Q7Z3E1)?
stdout: > 7.30

stdin: Give pIC50 (His-GST-PARP7 (Homo sapiens (Human), UniProt Q7Z3E1)) of the following compound: CNC(=O)c1ccnc(N(C)C2CN(C(=O)c3cc(Cc4n[nH]c(=O)c5ccc(OC6CCC6)cc45)ccc3F)C2)c1
stdout: 5.70 to 6.30

stdin: Give His-GST-PARP7 (Homo sapiens (Human), UniProt Q7Z3E1) pIC50 for CC#CCOc1ccc2c(=O)[nH]nc(Cc3ccc(F)c(C(=O)N4CCN(c5ccc(C#N)cn5)CC4)c3)c2c1
stdout: > 7.30
